Hey, just so you know, these numbers are from patent US20190105367A1.

- System: A. baumannii A472
- protocol: Preliminary MBC without and with sub-inhibitory polymyxin B (Example 4)
- Format: cell-based, Acinetobacter baumannii
- condition.context: Acinetobacter baumannii, A472, A. baumannii A472; +[…] PB; preliminary MBC; 2nd experiment; read-out: MBC

[
  {
    "compound": "NCC[C@H](O)C(=O)N[C@@H]1C[C@H](N)[C@@H](O[C@H]2O[C@H](CN)[C@@H](O)[C@H](O)[C@H]2O)[C@H](O)[C@H]1O[C@H]1O[C@H](CO)[C@@H](O)[C@H](N)[C@H]1O [Amikacin, reference compound]",
    "tested.target": "A. baumannii A472",
    "limit.sign": "=",
    "MBC, µg/mL": 32
  },
  {
    "compound": "Cc1c(-c2ccc(N)cc2)ccn2c(=O)c(C(=O)O)cc(C3CC3)c12",
    "tested.target": "A. baumannii A472",
    "limit.sign": "=",
    "MBC, µg/mL": 0.06
  },
  {
    "compound": "C[C@H]1COc2c(N3CCN(C)CC3)c(F)cc3c(=O)c(C(=O)O)cn1c23 [Levofloxacin, reference compound]",
    "tested.target": "A. baumannii A472",
    "limit.sign": "=",
    "MBC, µg/mL": 4
  },
  {
    "compound": "Cc1c(-c2ccc(CN)c(F)c2)ccn2c(=O)c(C(=O)O)cc(C3CC3)c12",
    "tested.target": "A. baumannii A472",
    "limit.sign": "=",
    "MBC, µg/mL": 0.125
  },
  {
    "compound": "Cc1c(-c2cc(F)c(N)cc2F)ccn2c(=O)c(C(=O)O)cc(C3CC3)c12",
    "tested.target": "A. baumannii A472",
    "limit.sign": "≤",
    "MBC, µg/mL": 0.03
  },
  {
    "compound": "Cc1c(-c2cc(Cl)c(N)c(Cl)c2)ccn2c(=O)c(C(=O)O)cc(C3CC3)c12",
    "tested.target": "A. baumannii A472",
    "limit.sign": "≤",
    "MBC, µg/mL": 0.03
  },
  {
    "compound": "C[C@@H](O)[C@H]1C(=O)N2C(C(=O)O)=C(S[C@@H]3CN[C@H](C(=O)N(C)C)C3)[C@H](C)[C@H]12",
    "tested.target": "A. baumannii A472",
    "limit.sign": "≤",
    "MBC, µg/mL": 0.125
  },
  {
    "compound": "Cc1c(-c2ccc(N)cc2)c(F)cn2c(=O)c(C(=O)O)cc(C3CC3)c12",
    "tested.target": "A. baumannii A472",
    "limit.sign": "≤",
    "MBC, µg/mL": 0.03
  }
]

###

- System: A. baumannii A489
- protocol: MIC without and with sub-inhibitory polymyxin B (Example 4)
- Type: cell-based, Acinetobacter baumannii
- condition.context: A. baumannii A489; +[…] PB; 2nd experiment
readout.kind: MIC without PB/MIC + PB

[
  {
    "compound.smiles": "Cc1c(-c2cc(Cl)c(N)c(Cl)c2)ccn2c(=O)c(C(=O)O)cc(C3CC3)c12",
    "readout.kind": "MIC without PB/MIC + PB",
    "result": "≥128"
  },
  {
    "compound.smiles": "COc1c(N2C[C@@H]3CCCN[C@@H]3C2)c(F)cc2c(=O)c(C(=O)O)cn(C3CC3)c12",
    "readout.kind": "MIC without PB/MIC + PB",
    "result": 4
  },
  {
    "compound.smiles": "Cc1c(-c2ccc(CN)cc2)c(F)cn2c(=O)c(C(=O)O)cc(C3CC3)c12",
    "readout.kind": "MIC without PB/MIC + PB",
    "result": 8
  },
  {
    "compound.smiles": "Cc1c(-c2ccc(CN)cc2)ccn2c(=O)c(C(=O)O)cc(C3CC3)c12",
    "readout.kind": "MIC without PB/MIC + PB",
    "result": 16
  },
  {
    "compound.smiles": "Cc1c(-c2ccc(N)c(F)c2)ccn2c(=O)c(C(=O)O)cc(C3CC3)c12",
    "readout.kind": "MIC without PB/MIC + PB",
    "result": "≥512"
  },
  {
    "compound.smiles": "Cc1c(-c2ccc(CN)c(F)c2)ccn2c(=O)c(C(=O)O)cc(C3CC3)c12",
    "readout.kind": "MIC without PB/MIC + PB",
    "result": "≥512"
  },
  {
    "compound.smiles": "Cc1c(-c2ccc(N)cc2)ccn2c(=O)c(C(=O)O)cc(C3CC3)c12",
    "readout.kind": "MIC without PB/MIC + PB",
    "result": "≥256"
  },
  {
    "compound.smiles": "Cc1c(-c2ccc(N)cc2)c(F)cn2c(=O)c(C(=O)O)cc(C3CC3)c12",
    "readout.kind": "MIC without PB/MIC + PB",
    "result": "≥256"
  }
]
